Please provide measured ELISA HSA (RSU) for the entries that follow.
biological target: human serum albumin (human) (UniProt P02768); assay: ELISA, lysate on plate-bound antigen
Sequence (P02768 25-609 limits assumed): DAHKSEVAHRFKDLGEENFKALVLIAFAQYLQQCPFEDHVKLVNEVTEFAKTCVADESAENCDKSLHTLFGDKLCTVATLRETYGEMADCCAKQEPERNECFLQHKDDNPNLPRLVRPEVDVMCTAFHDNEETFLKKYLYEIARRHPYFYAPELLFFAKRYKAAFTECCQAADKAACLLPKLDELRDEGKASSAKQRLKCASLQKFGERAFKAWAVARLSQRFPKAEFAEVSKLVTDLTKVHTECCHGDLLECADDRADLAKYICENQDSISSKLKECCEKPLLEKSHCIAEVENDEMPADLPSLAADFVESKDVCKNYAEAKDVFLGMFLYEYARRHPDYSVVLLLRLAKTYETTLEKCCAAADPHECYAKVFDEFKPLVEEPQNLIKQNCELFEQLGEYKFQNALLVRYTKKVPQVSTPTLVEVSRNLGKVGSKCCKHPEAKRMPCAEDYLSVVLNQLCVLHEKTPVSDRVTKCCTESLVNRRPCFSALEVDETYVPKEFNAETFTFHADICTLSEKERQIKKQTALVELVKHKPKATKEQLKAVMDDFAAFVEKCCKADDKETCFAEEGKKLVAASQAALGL
Provide a numeric answer, followed by its unit.

May I ask what ELISA HSA (RSU) has been recorded for ISOP121BR5P1D6 (designed binder, not shown: small tags and cut ends, FN3 domain; E. coli lysate in the ELISA) LPAPKNLVVSRVTEDSARLSWKQGTSFHFDSFLIQYQESEKVGEAIVLTVPGSERSYDLTGLKPGTEYTVSIYGVQLLANDIISSNPLSAIFTT ?
880 RSU

What do we get for ISOP121BR5P1A6 (designed binder, not shown: small tags and cut ends, FN3 domain; E. coli lysate in the ELISA) LPAPKNLVVSRVTEDSARLSWASWLVAFFDSFLIQYQESEKVGEAIVLTVPGSERSYDLTGLKPGTEYTVSIYGVYQRHASAFVSNPLSAIFTT ?
720 RSU

What do we get for ISOP121BR5P1D1 (designed binder, not shown: small tags and cut ends, FN3 domain; E. coli lysate in the ELISA) LPAPKNLVVSRVTEDSARLSWKWGGEFFDSFLIQYQESEKVGEAIVLTVPGSERSYDLTGLKPGTEYTVSIYGVYQRNWHHWYSNPLSAIFTT ?
960 RSU

What do we get for ISOP121BR5P1A2 (designed binder, not shown: small tags and cut ends, FN3 domain; E. coli lysate in the ELISA) LPAPKNLVVSRVTEDSARLSWRFSQEWFDSFLIQYQESEKVGEAIVLTVPGSERSYDLTGLKPGTEYTVSIYGVYARGIHKWLSNPLSAIFTT ?
800 RSU
